The values you see were collected from patent US7265130B2.

target: human NPY Y5 receptor (Homo sapiens); construct: expressed in transfected cells; test: Affinity for NPY Y5 receptor ([125I] peptide YY binding, CHO cell membranes); conditions: inhibition of specific [125I] peptide YY binding, membranes of CHO cells expressing NPY Y5 receptor
Sequence (Q15761 whole entry): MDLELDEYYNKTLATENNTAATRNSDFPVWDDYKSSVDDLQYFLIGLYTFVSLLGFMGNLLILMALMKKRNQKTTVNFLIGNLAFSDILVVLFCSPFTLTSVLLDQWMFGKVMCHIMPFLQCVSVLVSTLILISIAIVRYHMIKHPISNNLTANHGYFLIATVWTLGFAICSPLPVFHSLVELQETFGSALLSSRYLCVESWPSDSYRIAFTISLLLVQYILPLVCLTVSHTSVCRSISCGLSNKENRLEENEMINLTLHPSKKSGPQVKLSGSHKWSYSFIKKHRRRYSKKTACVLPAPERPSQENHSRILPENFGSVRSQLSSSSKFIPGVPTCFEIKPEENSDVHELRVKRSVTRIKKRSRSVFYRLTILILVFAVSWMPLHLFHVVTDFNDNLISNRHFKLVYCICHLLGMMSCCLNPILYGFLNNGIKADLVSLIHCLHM
Threshold check on IC50: strictly below 1 nM is Y; on or above 1 nM is N.

Completed entries (count: 2):
{"columns": ["molecule", "measured.target", "qualitative.label"],
 "data": [
  ["CC(C)(C)S(=O)(=O)Nc1ccc(C(=O)Nc2ccc(-c3ccccc3)cc2)cc1", "human NPY Y5 receptor (Homo sapiens)", "Y"],
  ["C[C@@H]1CN(S(=O)(=O)c2ccc(NC(=O)C3CCC(NS(=O)(=O)C(C)(C)C)CC3)cc2)C[C@H](C)O1 (stereo partly drawn)", "human NPY Y5 receptor (Homo sapiens)", "N"]
]}

I'd appreciate it if you could check whether CCCCc1ccc(NC(=O)C2CCC(NS(=O)(=O)C(C)(C)C)CC2)cc1 (stereo not drawn) [Compound I-22] has IC50 smaller than 1 nM.
N

Does the reported IC50 of CCOc1ccc(NC(=O)C2CCC(NS(=O)(=O)C(C)(C)C)CC2)cc1OCC (stereo not drawn) stay below 1 nM?
N

Bench note: check whether CC(C)(C)S(=O)(=O)NC1CCC(C(=O)Nc2ccc(-c3ccno3)cc2)CC1 (stereo not drawn) shows IC50 below 1 nM
Y
